Source listed as the supplement of paper PMC8728848.

Let's look at some binders and their measured glycan array binding signal (z-score).
TEST TARGET: GlcNAc(b1-3)Gal(b1-4)GlcNAc(b1-3)Gal(b1-4)GlcNAc(b1-3)Gal(b1-4)GlcNAc(b1-3)Gal(b1-4)GlcNAc(b1-2)Man(a1-3)[GlcNAc(b1-3)Gal(b1-4)GlcNAc(b1-3)Gal(b1-4)GlcNAc(b1-3)Gal(b1-4)GlcNAc(b1-3)Gal(b1-4)GlcNAc(b1-2)Man(a1-6)]Man(b1-4)GlcNAc(b1-4)GlcNAc
ASSAY OVERVIEW: glycan array binding signal (z-score within array); higher = stronger binding
MEASUREMENT SETUP: glycan notation: IUPAC condensed, linker removed
The entries come from a sample that favours the strongest signals as a whole.
No unit in the answer, only the number.

Known results for binders:
[
  {
    "BINDER": "DrGal3 (Danio rerio) (protein) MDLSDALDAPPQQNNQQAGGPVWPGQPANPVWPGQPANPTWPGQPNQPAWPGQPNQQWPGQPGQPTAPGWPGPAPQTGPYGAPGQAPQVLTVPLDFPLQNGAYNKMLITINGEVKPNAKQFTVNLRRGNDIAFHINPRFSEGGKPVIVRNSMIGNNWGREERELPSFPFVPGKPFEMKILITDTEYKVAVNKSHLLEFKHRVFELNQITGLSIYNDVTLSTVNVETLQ",
    "glycan array binding signal (z-score)": 5.4
  },
  {
    "BINDER": "MpAFP NterminalRI GFP (Marinomonas primoryensis) (protein) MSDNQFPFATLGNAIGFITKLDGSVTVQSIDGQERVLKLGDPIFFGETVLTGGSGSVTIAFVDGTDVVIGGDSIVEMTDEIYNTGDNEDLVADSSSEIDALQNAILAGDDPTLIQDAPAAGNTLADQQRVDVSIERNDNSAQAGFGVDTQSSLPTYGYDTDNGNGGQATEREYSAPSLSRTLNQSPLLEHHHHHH",
    "glycan array binding signal (z-score)": 0.255
  },
  {
    "BINDER": "Gal 3C (Homo sapiens), P17931 (protein) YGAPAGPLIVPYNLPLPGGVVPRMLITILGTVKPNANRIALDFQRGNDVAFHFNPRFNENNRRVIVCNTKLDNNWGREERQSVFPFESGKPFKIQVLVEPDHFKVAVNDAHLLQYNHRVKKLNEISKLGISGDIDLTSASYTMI",
    "glycan array binding signal (z-score)": 4.63
  },
  {
    "BINDER": "PpFlo2 (Pichia pastoris) (protein) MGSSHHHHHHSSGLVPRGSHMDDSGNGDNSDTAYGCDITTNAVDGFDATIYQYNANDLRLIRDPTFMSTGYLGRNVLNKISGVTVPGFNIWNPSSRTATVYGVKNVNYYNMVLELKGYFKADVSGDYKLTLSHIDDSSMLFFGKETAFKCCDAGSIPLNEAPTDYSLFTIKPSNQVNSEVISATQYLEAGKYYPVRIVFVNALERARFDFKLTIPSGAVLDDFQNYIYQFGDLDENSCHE",
    "glycan array binding signal (z-score)": 7.34
  },
  {
    "BINDER": "LSL-150 (Laetiporus sulphureus), Q7Z8V1 (protein) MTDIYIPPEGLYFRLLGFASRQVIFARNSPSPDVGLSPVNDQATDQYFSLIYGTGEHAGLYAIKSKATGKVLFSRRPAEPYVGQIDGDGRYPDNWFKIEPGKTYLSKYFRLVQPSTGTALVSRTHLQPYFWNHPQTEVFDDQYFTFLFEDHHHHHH",
    "glycan array binding signal (z-score)": 5.26
  }
]

Please examine the following record next.
Query string: Suppose we examine the binder Nc3LysM-2 (protein) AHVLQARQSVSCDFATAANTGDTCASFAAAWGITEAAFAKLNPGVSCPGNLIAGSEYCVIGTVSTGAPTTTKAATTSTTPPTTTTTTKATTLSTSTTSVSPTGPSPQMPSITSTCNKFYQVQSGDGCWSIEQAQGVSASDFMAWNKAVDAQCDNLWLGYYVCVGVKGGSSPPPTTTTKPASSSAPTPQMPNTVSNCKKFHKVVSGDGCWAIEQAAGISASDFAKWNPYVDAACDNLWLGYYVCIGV ; what glycan array binding signal (z-score) value has been reported?
Result string: -0.307
